- assay remarks: compound binding in COS7 lysate, probe aLAP1, primary screen, cell lysate, small-molecule microarray (AID 1124);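 note: lysate comes from COS7 cells expressing LAP1 and is applied at 0.3 µg/mL; score merges spot fluorescence near 667 nm with signal-to-noise over triplicate slides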
- recorded conditions: probe aLAP1, fluorescence, higher = more signal
Please enter Fulfilled where composite z-score is greater than or equal to 0.3, and Not fulfilled where it is lower.

{"columns": ["compound", "class name"],
 "data": [
  ["COc1cc(NN2C(C(O)c3ccco3)C=CC3C(=O)N(c4ccccc4)C(=O)C32)cc(OC)c1OC (stereo not drawn)", "Not fulfilled"]
]}

[in] Check if composite z-score >= 0.3 (inclusive). Item: "COc1ccc(C(=O)Nc2ccc(CN3C(=O)[C@]4(O[C@H](CCO)[C@@H]([Si](C)(C)c5ccc(OC)cc5)[C@@H]4C)c4ccccc43)cc2)cc1"
[out] Not fulfilled

[in] What do you have for CN1C(=O)C2C=CC(C(O)c3ccco3)N(Nc3ccccc3)C2C1=O (stereo not drawn) ?
[out] Fulfilled

[in] What do you have for "C[N+](C)(C)CCCCCCNC(=O)[C@@H]1C[C@@H]2C(=O)N[C@@H](Cc3ccccc3)C(=O)N2[C@@H]1c1cccc(OCCO)c1" ?
[out] Fulfilled

[in] What do you have for "NCCCCCNC(=O)[C@@H]1C[C@@H]2C(=O)N[C@@H](Cc3ccccc3)C(=O)N2[C@@H]1c1ccc(O)cc1" ?
[out] Not fulfilled

[in] What do you have for COc1cc2c(cc1O)C(C1CC1)N(Cc1sc3ccccc3c1Cl)CC2 (stereo not drawn) ?
[out] Fulfilled

[in] What do you have for "C=C(COC)/C(=C/C[C@H](OC(C)=O)c1ccc(CO)o1)c1cc(C(=O)OC)ccc1OC" ?
[out] Not fulfilled

[in] What do you have for "COC(=O)c1c(CC[C@@H](CO)NC(=O)NCCn2cc(C3(O)CCCC3)nn2)oc(C(C)=O)c1C(=O)OC" ?
[out] Not fulfilled

[in] What do you have for "C=CCOC(=O)[C@H]1[C@@H]2C(=O)O[C@@H](c3ccccc3)[C@@H](c3ccccc3)N2[C@@H](c2ccc(OCCOC(=O)[C@@H]3C[C@@H]4C(=O)N[C@@H](CCCCNC(C)=O)C(=O)N4[C@@H]3c3ccc(O)cc3)cc2)[C@]12C(=O)Nc1ccccc12" ?
[out] Not fulfilled

[in] What do you have for "O=C(CS)NCCCCCCNC(=O)[C@@H]1C[C@@H]2C(=O)N[C@@H](Cc3ccccc3)C(=O)N2[C@@H]1c1cccc(OCCO)c1" ?
[out] Not fulfilled

---

Would you mind telling me the reported composite z-score of each entry?
- subject of test: Epidermal growth factor receptor (Homo sapiens)
- assay remarks: EGFR binders on small-molecule microarrays, primary screen, biochemical, small-molecule microarray, 635 nm fluorescence (AID 1104);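 note: score merges 667 nm emission intensity with spot signal to noise over triplicate slides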
- recorded conditions: EGFR binding, higher = more signal
Numbers only.

Examples with their reported composite z-score follow.
{"columns": ["compound", "composite z-score"],
 "data": [
  ["[N-]=[N+]=Nc1ccccc1[C@@H]1OC(c2ccc(OCCCO)cc2)=N[C@]1(Cc1ccccc1)C(=O)N1CCOCC1", 0.308],
  ["CO[C@H]1O[C@H](CO)[C@@H](OC(=O)Nc2cccc(F)c2)[C@H](OC(=O)Nc2ccccc2)[C@@H]1OC(=O)Nc1ccccc1", 0.397],
  ["O=C1NC(=O)C2C1C=CC(C(O)c1cc(C(F)(F)F)cc(C(F)(F)F)c1)N2Nc1ccccn1 (configuration not stated)", 0.22],
  ["C=CCC(OC(C)=O)[C@@H]1[C@@H](N(Cc2ccc(-c3cccc(C(F)(F)F)c3)o2)C(=O)c2ccc(C)cc2)c2cc(OCCCO)ccc2N1C(=O)Cc1ccc2ccccc2c1 (some centres not stated)", -0.206],
  ["O=C(c1ccccc1)N1C(=O)[C@@]2(Cc3ccccc31)N=C(c1ccc(OCCCO)cc1)O[C@H]2c1ccccc1", 0.782]
]}

Here are 2 compounds. What values of composite z-score were reported for them?
1. CC(C)C[C@@H]1NC(=O)[C@@H]2C[C@H](C(=O)NCc3ccc(F)cc3)[C@H](c3cccc(OCCO)c3)N2C1=O
2. COC(=O)[C@@]1(Cc2ccc(F)cc2)[C@H]2c3cc(C(=O)N4CCCC4)n(Cc4ccc(S(C)(=O)=O)cc4)c3C[C@H]2CN1C(=O)c1ccccc1

[out]
1. 0.284
2. 0.771

Data origin, for the record: PubChem BioAssay
